Parameter: pKi. Scope: all listed entries.
# TARGET_SYSTEM: human IRAK4 (Homo sapiens (Human), UniProt Q9NWZ3)
# Sequence (Q9NWZ3 whole entry): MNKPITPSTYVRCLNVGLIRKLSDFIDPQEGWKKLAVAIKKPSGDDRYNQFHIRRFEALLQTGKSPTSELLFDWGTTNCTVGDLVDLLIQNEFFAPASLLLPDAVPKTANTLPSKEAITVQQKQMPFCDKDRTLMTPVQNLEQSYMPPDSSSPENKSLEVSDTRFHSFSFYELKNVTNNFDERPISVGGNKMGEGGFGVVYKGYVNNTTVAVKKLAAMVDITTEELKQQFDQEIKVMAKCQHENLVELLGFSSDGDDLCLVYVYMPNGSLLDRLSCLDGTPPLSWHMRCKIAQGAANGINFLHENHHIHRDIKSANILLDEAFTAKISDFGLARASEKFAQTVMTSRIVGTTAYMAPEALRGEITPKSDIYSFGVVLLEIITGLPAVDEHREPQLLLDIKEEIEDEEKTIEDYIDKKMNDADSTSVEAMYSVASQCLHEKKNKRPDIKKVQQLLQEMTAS
# PROTOCOL_DESCRIPTION: IRAK4 kinase inhibition, Transcreener fluorescence polarization ADP assay
# Type: biochemical
# ASSAY_SETUP: recombinant full-length His6-IRAK4; 125 uM ATP; 90 min; Ki computed using ATP Km 642 uM
pKi: −log10 of the molar value.

COMPOUND | TARGET_SYSTEM | pKi
CC1(C)Cc2cc(NC(=O)c3cnn4cccnc34)c(O[C@H]3CC[C@@H](O)CC3)cc2O1 | human IRAK4 (Homo sapiens (Human), UniProt Q9NWZ3) | 8.06
N[C@H]1CO[C@@H](CN2Cc3cc(NC(=O)c4cnn5cccnc45)c(N4CCOCC4)cc3C2=O)OC1 | human IRAK4 (Homo sapiens (Human), UniProt Q9NWZ3) | 7.10
N#CCN1Cc2cc(NC(=O)c3cnn4cccnc34)c(N3CCOCC3)cc2C1=O | human IRAK4 (Homo sapiens (Human), UniProt Q9NWZ3) | 7.70
CC1(C)Cc2cc(NC(=O)c3cnn4cccnc34)c(N3CCC4(CCOC4)C3)cc2O1 (stereo not shown) | human IRAK4 (Homo sapiens (Human), UniProt Q9NWZ3) | 7.10

---

Parameter: Ki. Scope: all listed entries.
# TARGET_SYSTEM: human IRAK4 (Homo sapiens (Human))
# PROTOCOL_DESCRIPTION: IRAK4 kinase inhibition, Transcreener fluorescence polarization ADP assay
# ASSAY_SETUP: recombinant full-length His6-IRAK4; 125 uM ATP; 90 min; Ki computed using ATP Km 642 uM

MOLECULE | Ki, nM
C[C@@]1(CO)CCc2cc(NC(=O)c3cnn4cccnc34)c(N3CCOCC3)cc2O1 (single isomer, unassigned) [Example 436] | 10
CC(C)(O)CCN1Cc2cc(NC(=O)c3cnn4cccnc34)c(N3CCN(CC(N)=O)CC3)cc2C1=O | 2
CC1(C)Cc2cc(NC(=O)c3cnn4cccnc34)c(N3CCC(F)(CN)CC3)cc2O1 | 1.3
O=C(Nc1cc2c(cc1N1CCOCC1)C(=O)N(C1CCOC1)C2)c1cnn2cccnc12 (single isomer, unassigned) [Example 276] | 26
C[C@]1(CC#N)COc2cc(N3CCOCC3)c(NC(=O)c3cnn4cccnc34)cc2C1 | 1.1
CC1(C)Cc2cc(NC(=O)c3cnn4cccnc34)c(OC[C@H]3CCC(=O)N3)cc2O1 | 74
CC(C)C(=O)N1CCN(c2cc3c(cc2NC(=O)c2cnn4cccnc24)CC(C)(C)O3)CC1 | 82
CN1CCC2(CC1)Cc1cc(NC(=O)c3cnn4cccnc34)c(OCC(F)F)cc1O2 | 7.3
C[C@]1(CO)Cc2cc(NC(=O)c3cnn4cccnc34)c(N3CCC(C4(O)CC4)CC3)cc2O1 | 4
CC1(C)Cc2cc(NC(=O)c3cnn4ccc(C[C@H]5CNC(=O)C5)nc34)c(C3CC3)cc2O1 | 210
CC1(CO)Cc2cc(NC(=O)c3cnn4cccnc34)c(N3CCC(n4ccnc4)CC3)cc2O1 (single isomer, unassigned) [Example 345] | 4
O=C(Nc1cc2c(cc1N1CCOCC1)OCCN2)c1cnn2cccnc12 | 98
CCN1CCN(c2cc3c(cc2NC(=O)c2cnn4cccnc24)CC(C)(C)O3)CC1 | 44
CC1(C)Oc2cc(NC(=O)c3cnn4cccnc34)c(N3CCOCC3)cc2C1=O | 260
CC1(C)Cc2cc(NC(=O)c3cnn4cccnc34)c(N3CCC(F)(F)C3)cc2O1 | 15
Cc1cnc2c(C(=O)Nc3cc4c(cc3N3CCOCC3)O[C@@](C)(CO)C4)cnn2c1 | 9
CC(C)(O)[C@]1(C)Cc2cc(NC(=O)c3cnn4cccnc34)c(N3CCOCC3)cc2O1 | 27
CC1(C)Cc2cc(NC(=O)c3cnn4cccnc34)c(N3CCN(CC4CC4)CC3)cc2O1 | 37
C[C@@]1(CO)Cc2cc(NC(=O)c3cnn4cccnc34)c(N3CCC4(CC3)CNC4=O)cc2O1 | 11
Cc1nc(CN2CCN(c3cc4c(cc3NC(=O)c3cnn5cccnc35)CC(C)(C)O4)CC2)no1 | 29
CNC[C@H]1OC[C@H](c2cc3c(cc2NC(=O)c2cnn4cccnc24)CC(C)(C)O3)CO1 | 150
Cc1cnc2c(C(=O)Nc3cc4c(cc3N3CCC(F)(CO)CC3)OC(C)(CO)C4)cnn2c1 (stereo not shown) | 2.7
CC(C)(O)[C@H]1CC[C@@H](N2Cc3cc(NC(=O)c4cnn5cccnc45)c(N4CCOCC4)cc3C2=O)CC1 | 38
O=C1COc2cc(N3CCC(CO)CC3)c(NC(=O)c3cnn4cccnc34)cc2N1 | 26
CC1(CO)Cc2cc(NC(=O)c3cnn4cccnc34)c(N3CCC(C(O)C(F)F)CC3)cc2O1 (stereo not shown) | 2
O=C(Nc1cc2c(cc1N1CCOCC1)OC1(C2)CN(CC(F)(F)F)C1)c1cnn2cccnc12 | 6.1
CC1(C)CN(c2cc3c(cc2NC(=O)c2cnn4cccnc24)C[C@@](C)(CO)O3)CCO1 | 370
CN1CCN(c2cc3c(cc2NC(=O)c2cnn4cccnc24)CC(C)(C)O3)CC(O)C1 (stereo not shown) | 330
CC1(C)Cc2cc(NC(=O)c3cnn4cccnc34)c(N3CCN(CC4CCOCC4)CC3)cc2O1 | 67
CC(C)(CO)CN1Cc2cc(NC(=O)c3cnn4cccnc34)c(N3CCOCC3)cc2C1=O | 39
CN(C)C1CCN(c2cc3c(cc2NC(=O)c2cnn4cccnc24)CC(C)(C)O3)CC1 | 7.2

---

# TARGET_SYSTEM: human IRAK4 (Homo sapiens (Human), UniProt Q9NWZ3)
# PROTOCOL_DESCRIPTION: IRAK4 kinase inhibition, Transcreener fluorescence polarization ADP assay
# ASSAY_SETUP: recombinant full-length His6-IRAK4; 125 uM ATP; 90 min; Ki computed using ATP Km 642 uM
READOUT: log10(Ki) (log10 of the value in nM)

COMPOUND | TARGET_SYSTEM | MEASURED_NUMBER
C[C@@H](N)CN1CCN(c2cc3c(cc2NC(=O)c2cnn4cccnc24)CC(C)(C)O3)CC1 [Example 477] | human IRAK4 (Homo sapiens (Human), UniProt Q9NWZ3) | 1.54
CC(=O)N1CCC2(CC1)Cc1cc(NC(=O)c3cnn4cccnc34)c(N3CCN(CC(N)=O)CC3)cc1O2 [Example 374] | human IRAK4 (Homo sapiens (Human), UniProt Q9NWZ3) | 0.30
C[C@]1(O)COc2cc(N3CCC(C#N)CC3)c(NC(=O)c3cnn4cccnc34)cc2C1 [Example 426] | human IRAK4 (Homo sapiens (Human), UniProt Q9NWZ3) | 0.70
O=C(Nc1cc2c(cc1OCC(F)F)OC1(CCNCC1)C2)c1cnn2cccnc12 [Example 377] | human IRAK4 (Homo sapiens (Human), UniProt Q9NWZ3) | 1.04
C[C@@H](O)[C@H](F)CN1Cc2cc(NC(=O)c3cnn4cccnc34)c(N3CCOCC3)cc2C1=O [Example 562] | human IRAK4 (Homo sapiens (Human), UniProt Q9NWZ3) | 0.28
CC1(C)Cc2cc(NC(=O)c3cnn4cccnc34)c(N3CC4CCOC4C3)cc2O1 (centres unmarked) [Example 234] | human IRAK4 (Homo sapiens (Human), UniProt Q9NWZ3) | 1.52
CSCC[C@@]1(C)Cc2cc(NC(=O)c3cnn4cccnc34)c(N3CCOCC3)cc2O1 [Example 444] | human IRAK4 (Homo sapiens (Human), UniProt Q9NWZ3) | 0.45
CC1(C)Cc2cc(NC(=O)c3cnn4cccnc34)c(N3CCN(C(C)(C)CO)CC3)cc2O1 [Example 137] | human IRAK4 (Homo sapiens (Human), UniProt Q9NWZ3) | 2.23

---

# TARGET_SYSTEM: human IRAK4 (Homo sapiens (Human))
# PROTOCOL_DESCRIPTION: IRAK4 kinase inhibition, Transcreener fluorescence polarization ADP assay
# ASSAY_SETUP: recombinant full-length His6-IRAK4; 125 uM ATP; 90 min; Ki computed using ATP Km 642 uM
pKi: −log10 of the molar value.
Parameter: pKi. Scope: all listed entries.

COMPOUND | pKi
C[C@]1(CO)Cc2cc(NC(=O)c3cnn4cccnc34)c(N3CCC4(CC3)CNC(=O)C4)cc2O1 (single isomer, unassigned) [Example 417] | 8.44
C[C@]1(CO)Cc2cc(NC(=O)c3cnn4cccnc34)c(C(F)F)cc2O1 [Example 74] | 6.12
C[C@]1(CO)Cc2cc(NC(=O)c3cnn4cc(F)cnc34)c(N3CCOCC3)cc2O1 [Example 54] | 7.80
CC1(C)Cc2cc(NC(=O)c3cnn4cc(C(N)=O)cnc34)c(N3CCOCC3)cc2O1 [Example 491] | 8.96
CC1(C)Cc2cc(NC(=O)c3cnn4cccnc34)c(N3CCN(Cc4ccn[nH]4)CC3)cc2O1 [Example 505] | 8.28
CN1Cc2cc(NC(=O)c3cnn4cccnc34)c(N3CCOCC3)cc2S1(=O)=O [Example 385] | 7.72
CC(C)(O)CCN1Cc2cc(NC(=O)c3cnn4cccnc34)c(N3CCN(CC(F)F)CC3)cc2C1=O [Example 279] | 8.74
CN1CC[C@]2(Cc3cc(NC(=O)c4cnn5cccnc45)c(N4CCOCC4)cc3O2)C1 [Example 390] | 7.80
C[C@@]1(CO)Cc2cc(NC(=O)c3cnn4cc(Cl)cnc34)c(N3CCN(CC(F)F)CC3)cc2O1 (single isomer, unassigned) [Example 169] | 8.60
CC1(C)Cc2cc(NC(=O)c3cnn4cccnc34)c(N3CCN(CCn4ccnc4)CC3)cc2O1 [Example 231] | 8.52
O=C(Nc1cc2c(cc1N1CCOCC1)C(=O)N([C@H]1CCC[C@@H]1CO)C2)c1cnn2cccnc12 [Example 566] | 8.10
CC(C)(O)CN1CCN(c2cc3c(cc2NC(=O)c2cnn4cccnc24)CC(C)(C)O3)CC1 [Example 434] | 7.66
CC1(C)Cc2cc(NC(=O)c3cnn4cccnc34)c(-c3cncc(C#N)c3)cc2O1 [Example 405] | 6.28
C[C@@H]1CN(c2cc3c(cc2NC(=O)c2cnn4cccnc24)CC(C)(C)O3)C[C@H](C)N1CC(N)=O [Example 227] | 6.31
C[C@@]1(CO)Cc2cc(NC(=O)c3cnn4cccnc34)c(N3CCC4(CCOC4)CC3)cc2O1 [Example 126] | 8.24
